System: KM12
PROCEDURE DETAILS: NCI tumour cell line growth inhibition, 48 h
The source made the active and inactive calls. Rule as the data show it: active = GI50 up to about 1.1 µM and inactive = higher.
Choose the fitting class; nothing outside class 1 (active), class 0 (inactive) is accepted.

[
  {
    "COMPOUND": "[N-]=[N+]=Nc1cc(=O)oc2ccccc12",
    "ASSIGNED LABEL": "class 0"
  },
  {
    "COMPOUND": "NC(=O)c1ccc(Cl)c([N+](=O)[O-])c1",
    "ASSIGNED LABEL": "class 0"
  },
  {
    "COMPOUND": "N#CC(C#N)=NNc1ccc2cn[nH]c2c1",
    "ASSIGNED LABEL": "class 0"
  },
  {
    "COMPOUND": "CC1Oc2cc3c(-c4c(O)cc(O)c5c(O)c6c(cc45)OC(C)C(C)C6=O)c(O)cc(O)c3c(O)c2C(=O)C1C (stereo unspecified)",
    "ASSIGNED LABEL": "class 1"
  },
  {
    "COMPOUND": "COc1cc(C2SCC(=O)N2c2ccc(Cl)c(Cl)c2)cc(OC)c1OC (stereo unspecified)",
    "ASSIGNED LABEL": "class 0"
  }
]

Outcome logged for "O=[N+]([O-])c1ccc(CSc2c3ccccc3nc3ccccc23)cc1" in this assay:
class 0

// provenance: ChEMBL document CHEMBL1201862
